Data provenance: the nanobody polyreactivity screen of Harvey et al. (2022)

- Test Method Notes: yeast display, Sf9 membrane polyspecificity reagent, FACS + sequencing; frameworks hold sequencing errors
Property: polyreactivity (PSR sort gate)

For orientation, consider the following solved cases.
# query: polyreactivity (PSR sort gate) of entry `QVQLVESGGGLVQAGGSLRLSCAASGSIFRGYVRGWYRQAPGKERELVAAITWSTGSTYYADSVKGRFTISRDNAKNTVYLQMNSLKPEDTAVYYCAAVRRWAANRYQSGVTGNYWGQGTKVTVSS` high polyreactivity

Thanks! And `QVQLVESGGGLVQAGGSLRLSCAASGSIFSSYGMGWYRQAPGKERELVATITGSGGSTYYSDSVKGRLTISRVNAKNTVYLQMNSLKPEDTAVYYCATRLGWFVKYYTGRYYYWGQGTQVTVSS` ? high polyreactivity

Thanks! And `QVQLVESGGGLVQAGGILRLSCASSGRIFTFYAMGWYRQAPGKERELVAAISSGGSTYYADSVKGLFTISRDNAKNTVYLQMNSLKPEDTAVYYCAAEPVWYADYDYWGQGTQVTVSS` ? low polyreactivity

Thanks! And `QVQLVESGGGLVQAGGSLRLSCAASGSTFSYNAMGWYRQAPGKERELVAAIRWGGGSTYYADSVKGRFTISCDNAKNTVYLQMNSLKPEDTAVYYCARYGYRRVGSRWAEFDYWGQGTQVTVSS` ? high polyreactivity

Thanks! And `QVQLVESGGGLVQAGGSLRLSCADSGNIFGTYAMGWSRQAPGKERELVANISNDDRTNYADSVKGRFTISRDNAKNTVYLQMNSLKPEDTAVYYCAVEYPSIAYRKSSKTFDYWGQGTQVTVSS` ? low polyreactivity

Continuing:
# query: polyreactivity (PSR sort gate) of entry `QVQLVESGGGLVQAGGSLRLSCAASGSTFRVNAMGWYRQAPGKERELVAAIRKSGGSTYADSVKGRFTISRDNAKNTVYLQMNSLKPEDTAVYYCNADATAWLGWDDNYWGQGSQVTVSS` low polyreactivity

Thanks! And `QVQLVDSGGGLVQAGGSLRISCAASGNILIGNVMGWYRQAPGKERELVAAITSGGDTYYADSVKGRITISRDNAKNTVYLQMNSLKPEDTAVYYCAADRPGQPKYEYWGQGTQVTVSS` ? low polyreactivity

Thanks! And `QVHLVQSGGGIVQAGGSLRLSCPASGSIFGYYAMGWYRQPRGKERELVAAITGGGRTYYADSVKGRFTISRDNAKNTVYLQMNSLKPEDTGVYYCTARSTSYRSYWRDYWGQGTHVTVSS` ? high polyreactivity

Thanks! And `QVQLVESGGGLVQAGGSLRLSCAASGSTFWYYAMGWYRQAPGKERELVASITYSGGSTYYADSVKGRFTISRDNAKNTVSLQMNSLKPEDTAVYYCAAEGYYSNYHYWGQGTQVTVSS` ? low polyreactivity

Thanks! And `QVQLVESGGGLVQAGGSLRLSCAASGSTFWLYAMGWYRQAPGKERELVAAIRSGDRTNYADSEKGRFTISRDNAKNTVYLQMNSLKPEDTAVYYCAAVAYLNWTPHYYWGQRTQVTVSS` ? low polyreactivity

Thanks! And `QVHLVDTGGGLVKAGGSLRLSSAASGSTFEYYSMGWYRQEPGKERQLVPSISSGGSTNYADSVKGRFTISRDNAKNTVYLQMNSLKPEDTAVYYCAAEFAVSFYWSWLGQDYNFWGLGTQVTVSS` ? high polyreactivity
